Origin of values: PubChem BioAssay (NCATS)

System: AA1029
Experiment: qHTS profiling for inhibitors of Plasmodium falciparum proliferation (AID 504749); further: nearly all actives have a fitted effect of over 60% in size
Conditions: P. falciparum in erythrocytes, SYBR Green DNA, 72 h; series mostly up to 28.7 µM
Records with an inconclusive call do not appear. Calls of active or inactive are those of the source. The call rests on the fitted dose curve; in most records, active means well fitted inhibition curve with a large enough effect; inconclusive means small, poorly fitted or top-dose-only effect; inactive means flat fitted curve, though single readings scatter.
Log the outcome using a class from label 1 (active), label 0 (inactive)

Record excerpt, results attached:
INSERT INTO measurements (molecule, label) VALUES
  ('O=C(CCNNC(=O)c1ccncc1)NCc1ccccc1', 'label 0'),
  ('O=C1NCN(c2ccccc2)C12CCN(CCCC(c1ccc(F)cc1)c1ccc(F)cc1)CC2', 'label 1'),
  ('CCOC(=O)c1cnc2c(cnn2CC)c1NN=C(C)C', 'label 0'),
  ('O=C(O)CCCCCCCC(=O)O', 'label 0'),
  ('CCN(CC)CCOCCOC(=O)C1(c2ccccc2)CCCC1', 'label 0'),
  ('CC(=O)OCC1=C(C(=O)O)N2C(=O)[C@@H](NC(=O)Cc3cccs3)[C@H]2SC1', 'label 0'),
  ('NS(=O)(=O)c1cc2c(cc1Cl)NC(C1CC3C=CC1C3)NS2(=O)=O (stereo not drawn)', 'label 0'),
  ('CCN(CC)CCCN(c1ccccc1)C1Cc2ccccc2C1', 'label 1'),
  ('CSc1ccc(C(=O)c2[nH]c(=O)[nH]c2C)cc1', 'label 0'),
  ('OCCN1CCN(CC/C=C2/c3ccccc3Sc3ccc(C(F)(F)F)cc32)CC1', 'label 1');

Query block: Hi, do you know how C[C@]12CCC(=O)C=C1CC[C@@H]1[C@@H]2CC[C@@]2(C)[C@H]1CC[C@]2(O)C(=O)CO came out in this test?
Result block: label 0

Query block: Hi, sorry to bother you, what did the test record for C[N+](C)(C)CCCCCCCCCC[N+](C)(C)C ?
Result block: label 1

Query block: Record lookup: outcome of this test for O=C(O)CN(CCOCCOCCN(CC(=O)O)CC(=O)O)CC(=O)O ?
Result block: label 0

###

Test system: ATS95
Test: qHTS profiling for inhibitors of Plasmodium falciparum proliferation (AID 504749); further: nearly all actives have a fitted effect of over 60% in size
Details: P. falciparum in erythrocytes, SYBR Green DNA, 72 h; series mostly up to 28.7 µM
Records with an inconclusive call do not appear. Active and inactive are the calls of the source. Calls follow the shape of the dose curve; as a rule, active = well fitted inhibition curve with a large enough effect; inconclusive = small, poorly fitted or top-dose-only effect; inactive = flat fitted curve, though single readings scatter.
A correct response names exactly one class from active, inactive

Examples with answers:
INSERT INTO assay_data (compound, label) VALUES
  ('c1cc(CN2CCCCC2)cc(OCCCNc2nc3ccccc3s2)c1', 'active'),
  ('O=C1NCN(c2ccccc2)C12CCN(CCCC(c1ccc(F)cc1)c1ccc(F)cc1)CC2', 'active'),
  ('NC/C=C/C(=O)O', 'inactive'),
  ('O=C(O)CP(=O)(O)O', 'inactive'),
  ('OCCN1CCN(CCCN2c3ccccc3C=Cc3ccccc32)CC1', 'active');

Pending compound:
Query block: Any idea what this test logged for CCCCNc1c(C(=O)OCC)c(C)nc2c1cnn2CC ?
Result block: inactive

###

Assay: qHTS of pediatric cancer cell lines to identify multiple opportunities for drug repurposing: Primary screen for RD cells (AID 1347104); further: nearly all actives have a fitted effect of over 55% in size
Conditions: RD rhabdomyosarcoma viability, CellTiter-Glo luminescence, 48 h; series mostly up to 46 µM
Results filed as inconclusive are left out. Activity calls are given as the source filed them. Calls follow the shape of the dose curve; as a rule, active = well fitted cell-killing curve with a large enough effect; inconclusive = small, poorly fitted or top-dose-only effect; inactive = flat fitted curve, though single readings scatter.
Respond with a class label; see True for active, False for inactive

INSERT INTO results (compound, label) VALUES
  ('CNC1(C)C2CCC(C2)C1(C)C (stereo not drawn)', 'False'),
  ('Nc1ncn([C@@H]2O[C@H](CO)[C@@H](O)[C@H]2O)c(=O)n1', 'True'),
  ('COC(=O)[C@@H](N)Cc1ccc(O)c(O)c1', 'False'),
  ('CCNC(=O)N1CCN(CCCC(c2ccc(F)cc2)c2ccc(F)cc2)CC1', 'False'),
  ('Cc1ccc(/C(=C\CN2CCCC2)c2ccccn2)cc1', 'False'),
  ('CCOC(=O)c1cnc2c(cnn2CC)c1NN=C(C)C', 'False'),
  ('CN1CCN(C2=Nc3ccccc3Oc3ccc(Cl)cc32)CC1', 'False'),
  ('COc1cc(Cc2cnc(N)nc2N)cc(OC)c1OC', 'False'),
  ('N[C@@H](COP(=O)(O)O)C(=O)O', 'False'),
  ('Nc1c2c(nc3ccccc13)CCCC2O (stereo not drawn)', 'False');

Query block: Which outcome was assigned to O=C1CC2(CCCC2)CC(=O)N1CCCCN1CCN(c2ncccn2)CC1 in this test?
Result block: False

Query block: Fill in: this test's call for C[C@]12CCC(=O)C=C1CC[C@@H]1[C@@H]2CC[C@@]2(C)[C@H]1CC[C@]2(O)C(=O)CO is ___
Result block: False

Query block: Hi team, can someone confirm the assay call for CO[C@@]1(NC(=O)CSCC#N)C(=O)N2C(C(=O)O)=C(CSc3nnnn3C)CS[C@@H]21 ?
Result block: False

Query block: GET /call?item= CCn1cc(C(=O)O)c(=O)c2cc3c(cc21)OCO3 returns the recorded outcome of this test.
Result block: False

Query block: Can you look up the reported call for Cc1ccc(S(=O)(=O)NC(=O)NN2CCCCCC2)cc1 for me?
Result block: False

Query block: Write down the call the test reported for this compound. Item: CC(=O)[C@@]1(O)CC[C@H]2[C@@H]3CCC4=CC(=O)CC[C@]4(C)[C@H]3CC[C@@]21C
Result block: False

Query block: For this compound, state the assay outcome: CC(C)(C)c1ccc(C(=O)CCCN2CCC(OC(c3ccccc3)c3ccccc3)CC2)cc1
Result block: True

Query block: What call does the record list for NS(=O)(=O)c1cc2c(cc1Cl)NC(C1CC3C=CC1C3)NS2(=O)=O (stereo not drawn) ?
Result block: False

Query block: // return assay outcome for NC(=O)N1c2ccccc2C=Cc2ccccc21
Result block: False

Query block: In this assay, the call recorded for CSc1ccc(C(=O)c2[nH]c(=O)[nH]c2C)cc1 was what?
Result block: False

Query block: Kindly provide the recorded test outcome for the following compound: CCOC(=O)C1=C(C)NC(C)=C(C(=O)OC)C1c1cccc(Cl)c1Cl (stereo not drawn)
Result block: False

Query block: Record lookup: outcome of this test for COCC(=O)O[C@]1(CCN(C)CCCc2nc3ccccc3[nH]2)CCc2cc(F)ccc2[C@@H]1C(C)C ?
Result block: True

Query block: Just curious, what result did CNCCC(Oc1ccccc1OC)c1ccccc1 (stereo not drawn) get here?
Result block: False

Query block: // outcome(item) with item = CCCCOCCOCCOCc1cc2c(cc1CCC)OCO2
Result block: False

Query block: Kindly provide the recorded test outcome for the following compound: CCOC(=O)C1=C(C)NC(C)=C(C(=O)OC)C1c1cccc([N+](=O)[O-])c1 (stereo not drawn)
Result block: False

Query block: Assay outcome for FC(F)(F)c1ccccc1-n1ccnc1 : what was it?
Result block: False

Query block: # lookup: test call for CC(C)NCC(O)c1cc(O)cc(O)c1 (stereo not drawn)
Result block: False

Query block: What did the test return for CCCNC(C)C(=O)Nc1ccccc1C (stereo not drawn) ?
Result block: False

Query block: Please share the test call associated with NC1=NCC2c3ccccc3Cc3ccccc3N12 (stereo not drawn) .
Result block: False

Query block: GET /call?item= NC/C=C/C(=O)O returns the recorded outcome of this test.
Result block: False

Query block: Per the assay record, what outcome was assigned to COc1ccc(CCN(C)CCCC(C#N)(c2cc(OC)c(OC)c(OC)c2)C(C)C)cc1OC (stereo not drawn) ?
Result block: False

Query block: What was the test verdict on Cc1nnc(SCC2=C(C(=O)O)N3C(=O)[C@@H](NC(=O)Cn4cnnn4)[C@H]3SC2)s1 ?
Result block: False

Query block: In this assay, the call recorded for C[N+](C)(C)CCOC(N)=O was what?
Result block: False
